Data provenance: patent US20250002435A1

target: hCB2R (Homo sapiens (Human), UniProt P34972)
Sequence (P34972 whole entry): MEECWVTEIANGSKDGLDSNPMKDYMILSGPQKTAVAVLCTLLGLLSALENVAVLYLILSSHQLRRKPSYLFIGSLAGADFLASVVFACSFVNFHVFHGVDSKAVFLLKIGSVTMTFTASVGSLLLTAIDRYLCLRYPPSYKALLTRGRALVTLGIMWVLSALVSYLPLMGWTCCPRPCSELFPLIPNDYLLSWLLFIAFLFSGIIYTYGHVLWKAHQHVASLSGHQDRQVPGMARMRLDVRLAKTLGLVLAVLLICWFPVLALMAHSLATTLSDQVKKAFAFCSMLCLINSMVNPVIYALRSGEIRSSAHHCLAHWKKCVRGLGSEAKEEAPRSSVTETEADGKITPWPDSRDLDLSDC
Readout Kind: pIC50
Just the number, please; pIC50 means minus log10 of the concentration in mol/L.

Ask: What does the data say about its pIC50? Entry: CCCCCc1cc(OC)c(C2(O)C3(C)CCC(C3)C2(C)C)c(OC)c1 (single isomer, unassigned)
Result: 5.80

====

molecular target: hCB2R (Homo sapiens (Human), UniProt P34972); assay: [3H]CP-55,940 competition displacement binding, membranes of CHO-K1 cells expressing human CB2R; conditions: displacement of [3H]CP-55,940
Measured log10(Ki) values are reported for all entries that follow.
Annotation: log10 of Ki, nM basis.

* CCCCCCc1ccc(OC)c(C2(O)C3(C)CCC(C3)C2(C)C)c1OC (single isomer, unassigned) [Compound 2b] | 1.87

Ask: What does the data say about its log10(Ki)? Entry: CCCCCCC(C)(C)c1cc(O)c(C2(O)C3(C)CCC(C3)C2(C)C)c(OC)c1 (stereo not drawn) [Compound 5d]
Result: 1.39

Ask: What does the data say about its log10(Ki)? Entry: CCCCCCC(C)(C)c1cc(OC)c(C2(O)C3(C)CCC(C3)C2(C)C)c(OC)c1F (single isomer, unassigned) [Compound 4c]
Result: 2.64

Ask: What does the data say about its log10(Ki)? Entry: CCCCCc1cc(OC)c(C2(O)C3(C)CCC(C3)C2(C)C)c(OC)c1 (single isomer, unassigned) [Compound 1a]
Result: 1.68

Ask: What does the data say about its log10(Ki)? Entry: CCCCCc1cc(OC)c(C2(O)C3(C)CCC(C3)C2(C)C)c(OC)c1 (single isomer, unassigned) [Compound 1b]
Result: 1.16

Ask: What does the data say about its log10(Ki)? Entry: CCCCCCc1ccc(OC)c(C2(O)C3(C)CCC(C3)C2(C)C)c1OC (single isomer, unassigned) [Compound 2a]
Result: 2.35
